Give measured fitness for each item. Keep answers brief.
tested on: B. subtilis 168; experiment: fitness (endpoint OD595 vs no drug) (fraction); higher = more growth; details: first compound 0.5 µg/mL; partner 0.125 µg/mL;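 note: OD595 on entry to stationary phase over no-drug wells; at most 1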

Task item: So what does the record say about fitness for CC[C@H]1OC(=O)[C@H](C)[C@@H](O[C@H]2C[C@@](C)(OC)[C@@H](O)[C@H](C)O2)[C@H](C)[C@@H](O[C@@H]2O[C@H](C)C[C@H](N(C)C)[C@H]2O)[C@](C)(O)C[C@@H](C)CN(C)[C@H](C)[C@@H](O)[C@]1(C)O [Azithromycin] + CC1=C(C(=O)O)N2C(=O)[C@@H](NC(=O)[C@H](N)c3ccccc3)[C@H]2SC1 [Cephalexin] ?
Reply: 0.823

Task item: So what does the record say about fitness for CC[C@H]1OC(=O)[C@H](C)[C@@H](O[C@H]2C[C@@](C)(OC)[C@@H](O)[C@H](C)O2)[C@H](C)[C@@H](O[C@@H]2O[C@H](C)C[C@H](N(C)C)[C@H]2O)[C@](C)(O)C[C@@H](C)CN(C)[C@H](C)[C@@H](O)[C@]1(C)O [Azithromycin] + CCC[C@@H]1C[C@@H](C(=O)N[C@@H]([C@H]2O[C@H](SC)[C@H](O)[C@@H](O)[C@H]2O)[C@H](C)Cl)N(C)C1 [Clindamycin] ?
Reply: 0.379

Task item: So what does the record say about fitness for CC1=C(C(=O)O)N2C(=O)[C@@H](NC(=O)[C@H](N)c3ccccc3)[C@H]2SC1 [Cephalexin] + CC(=O)NC[C@H]1CN(c2ccc(N3CCOCC3)c(F)c2)C(=O)O1 [Linezolid] ?
Reply: 0.601

Task item: So what does the record say about fitness for CC[C@H]1OC(=O)[C@H](C)[C@@H](O[C@H]2C[C@@](C)(OC)[C@@H](O)[C@H](C)O2)[C@H](C)[C@@H](O[C@@H]2O[C@H](C)C[C@H](N(C)C)[C@H]2O)[C@](C)(O)C[C@@H](C)CN(C)[C@H](C)[C@@H](O)[C@]1(C)O [Azithromycin] + N[C@@H]1CONC1=O [Cycloserine D] ?
Reply: 0.884

----------
Give measured fitness for each item. Keep answers brief.
system: S. aureus Newman; test: fitness (endpoint OD595 vs no drug) (fraction); higher = more growth; conditions: first compound 0.5 µg/mL; partner 0.0625 µg/mL
Form rule: numeric answer, no unit written next to it.

Task item: So what does the record say about fitness for CC1=C(C(=O)O)N2C(=O)[C@@H](NC(=O)[C@H](N)c3ccccc3)[C@H]2SC1 [Cephalexin] + Cn1nnc(-c2ccc(-c3ccc(N4C[C@H](CO)OC4=O)cc3F)cn2)n1 [Tedizolid] ?
Reply: 0.999

Task item: So what does the record say about fitness for CC[C@H]1OC(=O)[C@H](C)[C@@H](O[C@H]2C[C@@](C)(OC)[C@@H](O)[C@H](C)O2)[C@H](C)[C@@H](O[C@@H]2O[C@H](C)C[C@H](N(C)C)[C@H]2O)[C@](C)(O)C[C@@H](C)CN(C)[C@H](C)[C@@H](O)[C@]1(C)O [Azithromycin] + CO[C@@]12[C@H](COC(N)=O)C3=C(C(=O)C(C)=C(N)C3=O)N1C[C@@H]1N[C@@H]12 [Mitomycin C] ?
Reply: 0.365

Task item: So what does the record say about fitness for CC1=C(C(=O)O)N2C(=O)[C@@H](NC(=O)[C@H](N)c3ccccc3)[C@H]2SC1 [Cephalexin] + CC1=C\[C@@H](O)CC(=O)Cc2nc(co2)C(=O)N2CCC=C2C(=O)O[C@H](C(C)C)[C@H](C)/C=C/C(=O)NC\C=C\1 [Virginiamycin M1] ?
Reply: 0.994
